Measured values drawn from ChEMBL document CHEMBL3259677 for this set.

- TEST SYSTEM: UniProt:P42574
- Sequence (whole entry): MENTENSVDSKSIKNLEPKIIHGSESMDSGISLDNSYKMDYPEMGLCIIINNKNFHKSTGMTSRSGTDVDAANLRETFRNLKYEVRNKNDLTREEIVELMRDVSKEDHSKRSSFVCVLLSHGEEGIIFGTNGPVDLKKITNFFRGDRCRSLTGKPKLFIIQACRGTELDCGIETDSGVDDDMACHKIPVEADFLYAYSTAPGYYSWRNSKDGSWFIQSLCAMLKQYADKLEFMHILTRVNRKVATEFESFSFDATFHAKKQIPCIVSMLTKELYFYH
- METHOD: Inhibition of caspase 3 (unknown origin) at 30 uM
REPORTED METRIC: inhibition (%)
Output spec: scalar in %, unitless text.

[in] For CC(C)c1cccc(-c2ccc(COC(=O)N3CCC[C@H]3C(=O)N[C@H](C#N)CC(N)=O)cc2)c1 , write its inhibition.
[out] 40

[in] Quick one: give measured inhibition for N#C[C@H](CC(N)=O)NC(=O)[C@@H]1CCCN1C(=O)OCc1ccc(-c2ccc(F)c(F)c2)cc1
[out] 12

[in] Tell me its inhibition given CCOc1cccc(-c2ccc(COC(=O)N3CCC[C@H]3C(=O)N[C@H](C#N)CC(N)=O)cc2)c1 as the entry.
[out] 35

[in] Item N#C[C@H](CC(N)=O)NC(=O)[C@@H]1CCCN1C(=O)OCc1ccc(-c2cccc(C(F)(F)F)c2)cc1 : provide inhibition
[out] 20
